Experiment: in vitro
Settings: mouse, plasma
Property name: fraction unbound

Give the measured fraction unbound for CC(C)(C)[C@H](NC(=O)C(F)(F)F)C(=O)N1CC2(C[C@H]1C(=O)N[C@H](C#N)C[C@@H]1CCNC1=O)SCCS2 0.217

====

Assay: in vivo
Conditions: both, Sprague-Dawley, rat, po
Property name: AUC(0-t) (ng·h/mL)
The figure you give is taken to be in ng·h/mL; do not add the unit.

Dear colleague, please send me the reported AUC(0-t) for CC(C)(C)[C@H](NC(=O)C(F)(F)F)C(=O)N1CC2(C[C@H]1C(=O)N[C@H](C#N)C[C@@H]1CCNC1=O)SCCS2 when you can. 8920

====

Assay: in vivo
Conditions: both, cynomolgus monkey, po, 5 mg/kg
Property name: half-life (h)
Please respond with the number in h and leave the unit unwritten.

Return half-life (reported value) for this compound: CC(C)(C)[C@H](NC(=O)C(F)(F)F)C(=O)N1CC2(C[C@H]1C(=O)N[C@H](C#N)C[C@@H]1CCNC1=O)SCCS2 5.63

====

Assay: in vivo
Details: both, SD, rat, 1000 mg/kg/day
Property name: Cmax (ng/mL)
Supply the numeric figure in ng/mL, leaving out any unit text.

Complete the entry with Cmax for CC(C)(C)[C@H](NC(=O)C(F)(F)F)C(=O)N1CC2(C[C@H]1C(=O)N[C@H](C#N)C[C@@H]1CCNC1=O)SCCS2 [compound 9, simnotrelvir] 17000

====

Experiment: in vivo
Conditions: both, cynomolgus monkey, po, 5 mg/kg
Property name: Cmax
# output: number + unit

Determine its reported Cmax: CC(C)(C)[C@H](NC(=O)C(F)(F)F)C(=O)N1CC2(C[C@H]1C(=O)N[C@H](C#N)C[C@@H]1CCNC1=O)SCCS2 625 ng/mL

====

Assay: in vivo
Details: both, Sprague-Dawley, rat, po
Property name: AUC(0-inf)
# answer = value followed by unit

Find the measured AUC(0-inf) of CC(C)(C)[C@H](NC(=O)C(F)(F)F)C(=O)N1CC2(C[C@H]1C(=O)N[C@H](C#N)C[C@@H]1CCNC1=O)SCCS2 [compound 9, simnotrelvir] and report it. 9000 ng·h/mL

====

Test system: CYP3A4/5
Assay: in vitro
Conditions: human, microsomes, […], 10 μM
Property name: activity at 10 µM (%)
The figure you give is taken to be in %; do not add the unit.

Retrieve activity at 10 µM measured for CC(C)(C)[C@H](NC(=O)C(F)(F)F)C(=O)N1CC2(C[C@H]1C(=O)N[C@H](C#N)C[C@@H]1CCNC1=O)SCCS2 and print it. 73.9

====

Test: in vivo
Conditions: male, C57BL/6J, mouse, po
Property name: Cmax
Kindly format the answer as number then unit.

Annotate the compound CC(C)(C)[C@H](NC(=O)C(F)(F)F)C(=O)N1CC2(C[C@H]1C(=O)N[C@H](C#N)C[C@@H]1CCNC1=O)SCCS2 with its measured Cmax. 49300 ng/mL

====

Experiment: in vivo
Details: both, SD, rat, po
Property name: NOAEL (mg/kg/day)
Entry rule: numbers only, all in mg/kg/day.

Item CC(C)(C)[C@H](NC(=O)C(F)(F)F)C(=O)N1CC2(C[C@H]1C(=O)N[C@H](C#N)C[C@@H]1CCNC1=O)SCCS2 [compound 9, simnotrelvir] : provide NOAEL 1000
